tested on: HCT-15 colon; assay: NCI-60 one-dose screen, 48 h; settings: 10 µM unless noted
This is part of a sample that, as a whole, favours compounds with a hit. Of some 83,000 tested, about 20% had one in any assay. Activity calls are given as the source filed them. The calls were made as follows: active = growth percent below 10; inactive = the rest.
Answer with one of the outcomes yes (active), no (inactive)

Examples from the recorded data:
O=C(N/N=C/c1c(Cl)cccc1Cl)c1ccccc1Nc1ccnc(C(F)(F)F)c1; no
CC(Br)C(O)c1cc2c(cc1Br)OCO2 (stereo not given); no

[ask] In this assay, the call recorded for "COC1=CC(c2ccc[nH]2)=N/C1=C\c1[nH]c(C)c(C(=O)CCCCC(=O)NCc2ccccc2)c1C" was what?
[reply] yes

[ask] In this assay, the call recorded for "COc1ccc([N+](=O)[O-])c(/C=C/C(=O)c2ccccn2)c1" was what?
[reply] no

[ask] In this assay, the call recorded for "COC(=O)c1cc(-c2cccs2)c(C#N)c(N)c1C#N" was what?
[reply] no

###

Items are presented alongside their recorded growth.
system: A549/ATCC NSCLC; assay: NCI-60 one-dose screen, 48 h (100 = growth as untreated, 0 = no growth, -100 = all killed); conditions: 10 µM unless noted
Compounds without any hit were thinned out: in the full panel of roughly 83,000, 20% have a hit. Activity calls are given as the source filed them. How the source made its calls: active means growth percent below 10; inactive means the rest.

O=c1[nH]c(-c2cn(-c3ccc(Cl)cc3)nn2)nc2ccccc12; 61.2% (inactive)
N#CC1=C(N)n2nc(-c3ccncc3)nc2NC1c1cccc2ccccc12 (stereo not given); 92.4% (inactive)
O=C(CC(O)c1ccncc1)c1ccccc1 (stereo not given); 15.5% (inactive)
C=CC(=O)N[C@H](/C=C/C(=O)OCC)Cc1ccc(-c2cc(Cl)cc(Cl)c2)cc1; 76.4% (inactive)
O=C(Cc1c(F)cccc1Cl)Nc1ccc(S(=O)(=O)Nc2ncccn2)cc1; 110% (inactive)
O=S(=O)(NCCCNc1cc(-c2cn(-c3ccccc3)nc2-c2cccc(O)c2)ccn1)c1cccc(F)c1; 37% (inactive)

With those in mind, consider the next molecule.
[ask] Which value of growth has been reported for CCOC(=O)c1ccccc1NC(c1ccccc1)c1ccc2cccnc2c1O (stereo not given) in the records?
[reply] 21.6% (inactive)

###

System: OVCAR-8 ovarian
Assay: NCI-60 one-dose screen, 48 h (100 = growth as untreated, 0 = no growth, -100 = all killed)
Details: 10 µM unless noted
Protocol: Growth inhibition of the OVCAR-8 human tumor cell line is measured as a screen for anti-cancer activity. Cells are grown in 96 well plates and exposed to the test compound for 48 hours. Compounds are tested at a single concentration, which is 10^-5 M for most compounds. The reported endpoint is percent growth (GI% or GIPRCNT), where numbers from 0 - 100% represent growth inhibition, and numbers from -100% - 0 represent cell death. For example, a value of 40 represents 60% growth inhibition. […]
The panel holds about 83,000 compounds, 20% with a hit somewhere; the sample as a whole holds those more often.
// returns False unless growth is strictly below 90%, in which case True

Examples from the recorded data:
C/C(=N\NC(=O)CC#N)c1cc2cc(Cl)ccc2o1; False
CS(=O)(=O)N(c1cc(-c2ccc3ncnc(Nc4cccc(Cl)c4)c3c2)cnc1Cl)S(C)(=O)=O; True
CC(C)(C)c1ccc(S(=O)(=O)Oc2ccc3c4c(c(=O)oc3c2)CCCCC4)cc1; True

[ask] Does this compound meet the criterion growth < 90%? "CN(C)c1ccc(-c2ccc(-c3ccc(C(=N)N)cn3)o2)cc1"
[reply] True

[ask] Does this compound meet the criterion growth < 90%? COc1ccc(C2CC(=O)Nc3c2c(C)nn3-c2nc3ccccc3[nH]2)cc1OC (stereo not given)
[reply] True
